biological target: ~100 representative kinases (Homo sapiens, UniProt Q15375); construct: Recombinant protein kinase domains with a concentration of 2 μM; experiment: DSF 100 kinase selectivity screen; assay type: binding; settings: Protein EPHA7; average of three replicates;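 also: compound tested at 20 µM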
Sequence (Q15375 28-998): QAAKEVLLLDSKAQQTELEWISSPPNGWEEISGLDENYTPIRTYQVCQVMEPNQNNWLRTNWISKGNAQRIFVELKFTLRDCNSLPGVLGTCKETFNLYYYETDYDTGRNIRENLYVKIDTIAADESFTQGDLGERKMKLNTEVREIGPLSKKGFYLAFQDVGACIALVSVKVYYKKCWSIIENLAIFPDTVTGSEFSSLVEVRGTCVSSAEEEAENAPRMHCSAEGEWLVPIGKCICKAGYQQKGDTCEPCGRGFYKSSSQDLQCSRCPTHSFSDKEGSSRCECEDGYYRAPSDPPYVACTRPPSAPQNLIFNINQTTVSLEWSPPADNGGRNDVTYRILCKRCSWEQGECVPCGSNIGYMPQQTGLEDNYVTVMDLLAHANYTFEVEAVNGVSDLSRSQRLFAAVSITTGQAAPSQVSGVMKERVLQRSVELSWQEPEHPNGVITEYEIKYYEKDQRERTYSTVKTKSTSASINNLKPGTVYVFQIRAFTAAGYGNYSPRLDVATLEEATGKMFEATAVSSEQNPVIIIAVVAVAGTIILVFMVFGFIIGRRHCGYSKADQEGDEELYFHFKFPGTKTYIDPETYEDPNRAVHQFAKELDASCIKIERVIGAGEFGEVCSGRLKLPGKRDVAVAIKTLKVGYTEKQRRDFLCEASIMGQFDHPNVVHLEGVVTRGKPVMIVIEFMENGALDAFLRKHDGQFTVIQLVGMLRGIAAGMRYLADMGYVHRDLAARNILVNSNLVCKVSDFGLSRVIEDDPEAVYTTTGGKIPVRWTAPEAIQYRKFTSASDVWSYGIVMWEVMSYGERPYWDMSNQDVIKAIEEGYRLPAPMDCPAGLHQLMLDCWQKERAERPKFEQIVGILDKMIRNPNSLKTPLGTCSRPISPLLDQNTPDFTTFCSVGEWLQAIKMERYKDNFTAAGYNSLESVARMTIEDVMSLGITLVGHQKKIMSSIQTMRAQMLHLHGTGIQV
Would you mind sorting the entries by dTm according to these classes? b0 (below -1 K), b1 (-1 K to below 0.3 K), b2 (0.3 K or more)

Challenge: Class for O=C(Nc1ccc(Cl)cc1)C1(C(=O)Nc2cccc(-c3c[nH]c4ncnc(N5CCOCC5)c34)c2)CC1 ?
Response given: b1

Challenge: Could you place O=C(Nc1ccccc1)C1(C(=O)Nc2cccc(-c3c[nH]c4ncnc(N5CCOCC5)c34)c2)CC1 in its proper category? Many thanks.
Response given: b0

Challenge: Form: Item = O=C(Nc1cccc(-c2c[nH]c3ncnc(N4CCOCC4)c23)c1)C1(C(=O)Nc2ccc(F)c(F)c2)CC1 ; Class = ?
Response given: b0

Challenge: Sort CC(=O)N1CCN(c2nc(Cl)nc3[nH]cc(-c4cccc(NC(=O)Nc5cc(C(C)(C)C)nn5-c5ccc(C)cc5)c4)c23)CC1 into one of the categories.
Response given: b2

Challenge: # bin lookup: classify O=C(Nc1cccc(-c2c[nH]c3ncnc(N4CCOCC4)c23)c1)C1(C(=O)Nc2cccc3c2CCC3)CC1 by its dTm
Response given: b2

Challenge: // bin(item) where item = COc1cc(S(C)(=O)=O)ccc1Nc1nc(N(C)C)c2c(Cl)c[nH]c2n1
Response given: b1

Challenge: Which bin, given its dTm, does COc1cc(C(=O)N2CCOCC2)c(F)cc1Nc1nc(N(C)C)c2c(Cl)c[nH]c2n1 occupy?
Response given: b2

Challenge: Which bin should I file O=C(Nc1cccc(-c2c[nH]c3ncnc(N4CCOCC4)c23)c1)C1(C(=O)Nc2ccc(F)c(Br)c2F)CC1 under?
Response given: b2

Challenge: Determine which band this compound sits in: Cc1cc(F)ccc1NC(=O)C1(C(=O)Nc2cccc(-c3c[nH]c4ncnc(N5CCOCC5)c34)c2)CC1
Response given: b0

Challenge: Class? Entry: Cc1ccc(C(=O)Nc2ccc(CN3CCN(C)CC3)c(C(F)(F)F)c2)cc1C#Cc1cnc2[nH]ncc2c1 [GZD-824, reference compound]
Response given: b2

Challenge: For the record COc1ccc(NC(=O)C2(C(=O)Nc3cccc(-c4c[nH]c5ncnc(N6CCOCC6)c45)c3)CC2)cc1 , report the class its dTm corresponds to.
Response given: b0

Challenge: Class for O=C(Nc1cccc(-c2c[nH]c3ncnc(N4CCOCC4)c23)c1)C1(C(=O)Nc2ccc(F)cc2F)CC1 ?
Response given: b0

Challenge: Field: class (dTm) — entry: Cc1ccc(-n2nc(C(C)(C)C)cc2NC(=O)Nc2cccc(-c3c[nH]c4nc(Cl)nc(N5CCOCC5)c34)c2)cc1
Response given: b1

Challenge: # classify by dTm band: COc1cc2c(Oc3ccc(NC(=O)C4(C(=O)Nc5ccc(F)cc5)CC4)cc3F)ccnc2cc1OCCCN1CCOCC1 [Foretinib, reference compound]
Response given: b1

====

target: ~100 representative kinases (Homo sapiens, UniProt P54753); construct: Recombinant protein kinase domains with a concentration of 2 μM; test: DSF 100 kinase selectivity screen; format: binding; details: Protein EPHB3A; average of three replicates;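 also: compound tested at 20 µM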
Sequence (P54753 34-998): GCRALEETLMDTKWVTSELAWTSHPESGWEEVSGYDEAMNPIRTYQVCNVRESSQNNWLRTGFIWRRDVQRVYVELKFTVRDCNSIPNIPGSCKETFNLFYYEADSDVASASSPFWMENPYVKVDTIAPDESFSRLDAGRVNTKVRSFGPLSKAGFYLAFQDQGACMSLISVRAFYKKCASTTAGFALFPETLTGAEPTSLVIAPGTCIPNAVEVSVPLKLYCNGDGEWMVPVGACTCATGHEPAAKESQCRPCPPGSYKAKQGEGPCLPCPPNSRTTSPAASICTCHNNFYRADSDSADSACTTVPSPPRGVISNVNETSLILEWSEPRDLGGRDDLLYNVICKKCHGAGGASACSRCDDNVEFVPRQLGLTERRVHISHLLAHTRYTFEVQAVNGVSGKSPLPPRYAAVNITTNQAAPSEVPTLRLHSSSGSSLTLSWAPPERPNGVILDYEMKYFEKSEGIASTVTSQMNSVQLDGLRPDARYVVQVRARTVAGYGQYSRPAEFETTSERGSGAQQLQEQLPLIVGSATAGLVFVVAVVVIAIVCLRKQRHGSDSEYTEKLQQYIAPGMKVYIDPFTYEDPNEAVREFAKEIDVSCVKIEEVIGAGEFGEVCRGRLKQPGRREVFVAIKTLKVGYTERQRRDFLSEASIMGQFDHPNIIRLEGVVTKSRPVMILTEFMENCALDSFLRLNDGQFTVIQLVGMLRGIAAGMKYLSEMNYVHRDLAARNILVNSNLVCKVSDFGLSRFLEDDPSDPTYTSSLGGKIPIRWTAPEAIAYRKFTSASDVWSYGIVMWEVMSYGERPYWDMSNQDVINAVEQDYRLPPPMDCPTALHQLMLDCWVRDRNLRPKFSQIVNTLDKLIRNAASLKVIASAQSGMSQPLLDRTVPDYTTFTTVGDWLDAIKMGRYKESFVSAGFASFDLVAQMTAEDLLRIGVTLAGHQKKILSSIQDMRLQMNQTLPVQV
Flag rule - dTm less than 0.6 K flags met; the remaining entries get not met.

Challenge: Would you kindly verify if dTm of O=C(Nc1cccc(-c2c[nH]c3ncnc(N4CCOCC4)c23)c1)C1(C(=O)Nc2ccc(F)c(Br)c2)CC1 is strictly less than 0.6 K?
Response given: not met

Challenge: Strictly below 0.6 K: is that where dTm of Cn1cc(-c2c[nH]c3ncnc(N4CCOCC4)c23)cc1C#N sits?
Response given: met

Challenge: Report whether reported dTm is lower than 0.6 K (strictly) for CNC(=O)c1cc(Oc2ccc(NC(=O)Nc3cc(C(C)(C)C)nn3-c3ccc4ncccc4c3)c(F)c2)ccn1 [Rebastinib, reference compound]
Response given: met

Challenge: I'd appreciate it if you could check whether Cc1ccc(-n2nc(C(C)(C)C)cc2NC(=O)Nc2cccc(-c3c[nH]c4nc(Cl)nc(N5CCOCC5)c34)c2)cc1 has dTm smaller than 0.6 K.
Response given: met

Challenge: Strictly below 0.6 K in dTm? Cc1cc(F)ccc1NC(=O)C1(C(=O)Nc2cccc(-c3c[nH]c4ncnc(N5CCOCC5)c34)c2)CC1
Response given: not met

Challenge: # TODO verify dTm < 0.6 K strictly for this compound: COc1cc(NC(=O)C2(C(=O)Nc3cccc(-c4c[nH]c5ncnc(N6CCOCC6)c45)c3)CC2)ccc1F
Response given: not met

Challenge: Strictly below 0.6 K in dTm? Cc1ccc(-n2nc(C(C)(C)C)cc2NC(=O)Nc2cccc(-c3c[nH]c4ncnc(N5CCOCC5)c34)c2)cc1
Response given: met

Challenge: Answer whether the compound O=C(Nc1cccc(-c2c[nH]c3ncnc(N4CCOCC4)c23)c1)C1(C(=O)Nc2cccc3c2CCC3)CC1 has dTm strictly less than 0.6 K
Response given: met

Challenge: Determine if COc1cc2c(Oc3ccc(NC(=O)C4(C(=O)Nc5ccc(F)cc5)CC4)cc3F)ccnc2cc1OCCCN1CCOCC1 [Foretinib, reference compound] shows dTm strictly lower than 0.6 K.
Response given: not met

Challenge: Record O=C(Nc1cccc(-c2c[nH]c3ncnc(N4CCOCC4)c23)c1)C1(C(=O)Nc2ccc(F)c(Cl)c2)CC1 : is its dTm strictly below 0.6 K?
Response given: not met

Challenge: State whether 0.6 K exceeds dTm recorded for Cc1ccc(C(=O)Nc2ccc(CN3CCN(C)CC3)c(C(F)(F)F)c2)cc1C#Cc1cnc2[nH]ncc2c1 [GZD-824, reference compound] .
Response given: not met

Challenge: Is it true that dTm reported for CC(C)(C)c1cc(NC(=O)Nc2cccc(-c3c[nH]c4ncnc(N5CCOCC5)c34)c2)n(-c2ccc3ncccc3c2)n1 is less than 0.6 K?
Response given: not met

====

target: ~100 representative kinases (Homo sapiens, UniProt P11362); construct: Recombinant protein kinase domains with a concentration of 2 μM; assay: DSF 100 kinase selectivity screen; type: binding; conditions: protein FGFR1; average of three replicates;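 also: compound tested at 20 µM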
Sequence (P11362 22-822): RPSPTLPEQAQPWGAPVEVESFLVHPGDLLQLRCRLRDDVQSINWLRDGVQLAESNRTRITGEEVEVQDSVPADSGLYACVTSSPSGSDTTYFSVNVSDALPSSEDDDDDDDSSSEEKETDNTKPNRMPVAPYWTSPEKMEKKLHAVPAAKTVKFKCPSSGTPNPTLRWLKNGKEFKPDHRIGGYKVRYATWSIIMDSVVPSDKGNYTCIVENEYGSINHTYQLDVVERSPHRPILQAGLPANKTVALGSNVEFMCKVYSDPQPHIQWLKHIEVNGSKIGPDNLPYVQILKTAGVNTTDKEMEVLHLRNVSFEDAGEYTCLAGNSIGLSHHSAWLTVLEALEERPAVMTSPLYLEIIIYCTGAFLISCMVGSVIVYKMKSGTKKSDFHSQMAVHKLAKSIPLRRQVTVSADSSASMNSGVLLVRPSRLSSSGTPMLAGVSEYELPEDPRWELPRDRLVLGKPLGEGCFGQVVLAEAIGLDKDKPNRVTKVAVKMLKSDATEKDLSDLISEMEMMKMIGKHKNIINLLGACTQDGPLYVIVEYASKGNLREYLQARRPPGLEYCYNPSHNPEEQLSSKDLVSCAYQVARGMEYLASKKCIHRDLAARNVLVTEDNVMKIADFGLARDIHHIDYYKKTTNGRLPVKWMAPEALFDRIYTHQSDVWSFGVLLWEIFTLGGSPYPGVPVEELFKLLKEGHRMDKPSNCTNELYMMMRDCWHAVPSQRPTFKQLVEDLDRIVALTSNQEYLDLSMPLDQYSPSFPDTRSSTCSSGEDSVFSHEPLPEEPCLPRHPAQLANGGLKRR
measured-metric: dTm (K)
Only the number, expressed in K, is required.

Query Cc1ccc(NC(=O)C2(C(=O)Nc3cccc(-c4c[nH]c5ncnc(N6CCOCC6)c45)c3)CC2)cc1 on ~100 representative kinases (Homo sapiens, UniProt P11362); dTm returned: 0.77

Tested system ~100 representative kinases (Homo sapiens, UniProt P11362); dTm recorded for CNC(=O)c1cc(Oc2ccc(NC(=O)Nc3cc(C(C)(C)C)nn3-c3ccc4ncccc4c3)c(F)c2)ccn1 [Rebastinib, reference compound] was 5.75

Observed dTm on ~100 representative kinases (Homo sapiens, UniProt P11362), entry Cc1ccc(-n2nc(C(C)(C)C)cc2NC(=O)Nc2cccc(-c3c[nH]c4ncnc(N5CCOCC5)c34)c2)cc1 , equals 5.95

Noted dTm for Cc1ccc(C(=O)Nc2ccc(CN3CCN(C)CC3)c(C(F)(F)F)c2)cc1C#Cc1cnc2[nH]ncc2c1 [GZD-824, reference compound] , tested on ~100 representative kinases (Homo sapiens, UniProt P11362): 12.20

Record CCNc1nc(Nc2cc(F)c(C(=O)N3CCOCC3)cc2OC)ncc1C(F)(F)F ; system ~100 representative kinases (Homo sapiens, UniProt P11362); dTm = 0.25

For the compound Cc1ccc(C(=O)Nc2ccc(CN3CCN(C)CC3)c(C(F)(F)F)c2)cc1C#Cc1cnc2cccnn12 [Ponatinib, reference compound] , the measured dTm on ~100 representative kinases (Homo sapiens, UniProt P11362) was 11.47

Measured dTm for this entry Cc1cc(F)ccc1NC(=O)C1(C(=O)Nc2cccc(-c3c[nH]c4ncnc(N5CCOCC5)c34)c2)CC1 on ~100 representative kinases (Homo sapiens, UniProt P11362): 0.81

====

Molecular target: LRRK2^KW (Homo sapiens)
Construct: LRRK2 R1847 to E2527; His6-Z-tag (TEV cleavable) (N, cleaved yes); host or cells: Sf9 insect cells (baculovirus)
Sequence (Q5S007 1847-2527): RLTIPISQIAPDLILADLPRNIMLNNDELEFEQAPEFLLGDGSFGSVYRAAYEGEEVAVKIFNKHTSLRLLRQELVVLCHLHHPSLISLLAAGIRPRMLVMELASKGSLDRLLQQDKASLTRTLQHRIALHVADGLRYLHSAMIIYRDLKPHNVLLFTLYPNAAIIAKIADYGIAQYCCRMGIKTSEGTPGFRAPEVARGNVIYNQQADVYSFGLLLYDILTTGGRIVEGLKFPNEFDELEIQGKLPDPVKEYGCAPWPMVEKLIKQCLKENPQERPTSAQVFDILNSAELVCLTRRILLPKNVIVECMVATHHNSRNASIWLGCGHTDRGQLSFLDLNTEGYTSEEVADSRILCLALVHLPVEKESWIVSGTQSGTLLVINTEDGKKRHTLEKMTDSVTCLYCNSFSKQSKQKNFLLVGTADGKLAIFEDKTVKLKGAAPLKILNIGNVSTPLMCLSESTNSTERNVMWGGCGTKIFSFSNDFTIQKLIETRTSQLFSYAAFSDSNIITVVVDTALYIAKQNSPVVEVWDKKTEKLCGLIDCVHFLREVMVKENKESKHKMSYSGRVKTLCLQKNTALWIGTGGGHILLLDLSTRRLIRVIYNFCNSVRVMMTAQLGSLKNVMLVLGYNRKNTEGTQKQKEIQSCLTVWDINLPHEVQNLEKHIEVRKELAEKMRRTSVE
Experiment: DSF thermal stabilization of LRRK2^KW
Assay type: binding
Details: screen of 31 type-II inhibitors, Table S1
Decision: dTm LRRK2(KW) [K] >= 7 K yields Condition met, all other cases yield Condition not met.

Challenge: Confirm if dTm LRRK2(KW) [K] reported for the compound Cc1cn(-c2cc(NC(=O)c3ccc(C)c(Nc4nccc(-c5cccnc5)n4)c3)cc(C(F)(F)F)c2)cn1 [Nilotinib, reference compound] is 7 K or above.
Response given: Condition not met

Challenge: Does dTm LRRK2(KW) [K] meet or surpass 7 K for CNC(=O)c1cc(Oc2ccc(NC(=O)Nc3ccc(Cl)c(C(F)(F)F)c3)c(F)c2)ccn1 [Regorafinib, reference compound] ?
Response given: Condition not met

Challenge: I'd appreciate it if you could say whether CNC(=O)c1ccccc1Sc1ccc2c(/C=C/c3ccccn3)n[nH]c2c1 [Axitinib, reference compound] has dTm LRRK2(KW) [K] at least equal to 7 K.
Response given: Condition met

Challenge: Determine whether measured dTm LRRK2(KW) [K] meets or exceeds 7 K for Cc1csc(-c2nnc(Nc3ccc(Oc4ncccc4-c4ccnc(N)n4)cc3)c3ccccc23)c1 [AMG 900, reference compound]
Response given: Condition not met

Challenge: Kindly determine if dTm LRRK2(KW) [K] recorded for COc1cc2c(Oc3ccc(NC(=O)C4(C(=O)Nc5ccc(F)cc5)CC4)cc3F)ccnc2cc1OCCCN1CCOCC1 [Foretinib, reference compound] is above or exactly 7 K.
Response given: Condition met
